meta.source: PubChem BioAssay AID1508600

z-score overview
procedure.details: Components of the Cytosolic LPS Sensing Pathway: Gene Identification via Genome-wide siRNA Screen;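 also: robust z of the log signal after scaling to non-targeting control siRNA wells of the plate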
assay.conditions: RAW264.7 macrophages, IL-1a HTRF, actives lie on both sides, screened at 100 nM (by protocol), cells primed 5 h with Pam3CSK4 first
Hit rate of the full screen: of about 53,000 sequences, about 3,700 (7%) were called active. This excerpt belongs to a sample that is enriched for actives.
Just the number, please, no unit attached.

Completed entries (count: 2):
- polymer.sequence: "CCAAAUCUGGUGUGAUUCATT against Arhgef4"
  z-score: -0.923
- polymer.sequence: "GGCUUUUUCUACAUGCGCCTT against Olfr1104"
  z-score: -0.236

The measured z-score associated with GCUGUUUUGUCUCCAGCCCTT against Zbtb20 reads -0.118

The measured z-score associated with GGCUACAUUGUCUCAUUGUTT against Opn1mw reads -0.59
